Reported values of inhibition at 72 h, 0.1 mg/L for individual entries
assay: Phytotoxicity against Zea mays (maize) assessed as inhibition of fresh weight at 0.1 mg/L and at 25 degC/20 degC day/night temperature 14 hr photoperiod for 3 days; assay type: organism-based; details: in vivo
Provide only the numeric value, understood in %.

// worked examples, inhibition at 72 h, 0.1 mg/L included
Compound: C[C@@H](Oc1ccc(Cl)cc1Cl)C(=O)O [(R)-DICHLORPROP]
Observed Property: inhibition at 72 h, 0.1 mg/L
Measured Number: 24.6

Compound: CC(Oc1ccc(Cl)cc1Cl)C(=O)O (racemic) [RAC-DICHLORPROP]
Observed Property: inhibition at 72 h, 0.1 mg/L
Measured Number: 10

Recorded inhibition at 72 h, 0.1 mg/L (compound C[C@H](Oc1ccc(Cl)cc1Cl)C(=O)O [(S)-DICHLORPROP] ): 9.5

* * *

assay: Phytotoxicity against Zea mays (maize) assessed as inhibition of shoot height at 0.1 mg/L and at 25 degC/20 degC day/night temperature 14 hr photoperiod for 3 days; assay type: organism-based; settings: in vivo
Observed Property: inhibition at 72 h, 0.1 mg/L (%)
Dear colleague, please return just the value in %, with no unit written.

Compound: C[C@@H](Oc1ccc(Cl)cc1Cl)C(=O)O [(R)-DICHLORPROP]
Endpoint Unit: %
inhibition at 72 h, 0.1 mg/L: 8.61

Reported inhibition at 72 h, 0.1 mg/L ( C[C@H](Oc1ccc(Cl)cc1Cl)C(=O)O [(S)-DICHLORPROP] ) = 6.28

For reference, reported inhibition at 72 h, 0.1 mg/L for CC(Oc1ccc(Cl)cc1Cl)C(=O)O (racemic) [RAC-DICHLORPROP] stands at 7.9

* * *

test: Phytotoxicity against Zea mays (maize) assessed as inhibition of root length at 0.1 mg/L and at 25 degC/20 degC day/night temperature 14 hr photoperiod for 3 days; format: organism-based; settings: in vivo
Observed Property: inhibition at 72 h, 0.1 mg/L (%)
Entry rule: numbers only, all in %.

Worked set:
Molecule: C[C@@H](Oc1ccc(Cl)cc1Cl)C(=O)O [(R)-DICHLORPROP]
Endpoint Unit: %
inhibition at 72 h, 0.1 mg/L: 26.6
//
Molecule: CC(Oc1ccc(Cl)cc1Cl)C(=O)O (racemic)
Endpoint Unit: %
inhibition at 72 h, 0.1 mg/L: 24.5

Per the records, this molecule ( C[C@H](Oc1ccc(Cl)cc1Cl)C(=O)O [(S)-DICHLORPROP] ) has inhibition at 72 h, 0.1 mg/L equal to 22.7

* * *

experiment: Phytotoxicity against Zea mays (maize) assessed as inhibition of fresh weight at 0.05 mg/L and at 25 degC/20 degC day/night temperature 14 hr photoperiod for 3 days; type: organism-based; conditions: in vivo
Observed Property: inhibition at 72 h, 0.05 mg/L (%)
Entry rule: numbers only, all in %.

Compound: CC(Oc1ccc(Cl)cc1Cl)C(=O)O (racemic) [RAC-DICHLORPROP]
inhibition at 72 h, 0.05 mg/L [%]: 4.28

Compound: C[C@@H](Oc1ccc(Cl)cc1Cl)C(=O)O [(R)-DICHLORPROP]
inhibition at 72 h, 0.05 mg/L [%]: 14.8

Kindly consider the entry below.
Lab book: inhibition at 72 h, 0.05 mg/L of C[C@H](Oc1ccc(Cl)cc1Cl)C(=O)O [(S)-DICHLORPROP] noted as 2.94

* * *

assay: Phytotoxicity against Zea mays (maize) assessed as inhibition of root length at 0.5 mg/L and at 25 degC/20 degC day/night temperature 14 hr photoperiod for 3 days; format: organism-based; details: in vivo
Observed Property: inhibition at 72 h, 0.5 mg/L (%)
Report the figure in % without appending any unit label.

Below are worked cases with known answers.
Compound: CC(Oc1ccc(Cl)cc1Cl)C(=O)O (racemic) [RAC-DICHLORPROP]
Measured Number: 36.7

Compound: C[C@@H](Oc1ccc(Cl)cc1Cl)C(=O)O [(R)-DICHLORPROP]
Measured Number: 38.4

Could you now look at the following compound, please?
Reported inhibition at 72 h, 0.5 mg/L of C[C@H](Oc1ccc(Cl)cc1Cl)C(=O)O [(S)-DICHLORPROP] : 34.9

* * *

assay: Phytotoxicity against Zea mays (maize) assessed as inhibition of shoot height at 0.05 mg/L and at 25 degC/20 degC day/night temperature 14 hr photoperiod for 3 days; type: organism-based; details: in vivo
Some molecules, each annotated with its measured inhibition at 72 h, 0.05 mg/L.
Supply the numeric figure in %, leaving out any unit text.

The following molecules have reported results that may help.
Molecule: C[C@@H](Oc1ccc(Cl)cc1Cl)C(=O)O [(R)-DICHLORPROP]
Measured Number: 5.27
--
Molecule: C[C@H](Oc1ccc(Cl)cc1Cl)C(=O)O [(S)-DICHLORPROP]
Measured Number: 3.12

Kindly consider the entry below.
What the record says about CC(Oc1ccc(Cl)cc1Cl)C(=O)O (racemic) : inhibition at 72 h, 0.05 mg/L is 4.02

* * *

assay: Phytotoxicity against Zea mays (maize) assessed as inhibition of root length at 0.02 mg/L and at 25 degC/20 degC day/night temperature 14 hr photoperiod for 3 days; assay type: organism-based; details: in vivo
Each record here notes measured inhibition at 72 h, 0.02 mg/L.
Numeric only. Scale: %

Below are worked cases with known answers.
Compound: CC(Oc1ccc(Cl)cc1Cl)C(=O)O (racemic) [RAC-DICHLORPROP]
Endpoint Unit: %
inhibition at 72 h, 0.02 mg/L: 12.7
--
Compound: C[C@@H](Oc1ccc(Cl)cc1Cl)C(=O)O [(R)-DICHLORPROP]
Endpoint Unit: %
inhibition at 72 h, 0.02 mg/L: 14.3

Please find the next compound below.
Sample C[C@H](Oc1ccc(Cl)cc1Cl)C(=O)O [(S)-DICHLORPROP] ; inhibition at 72 h, 0.02 mg/L observed: 11.4

* * *

test: Phytotoxicity against Zea mays (maize) assessed as inhibition of fresh weight at 1 mg/L and at 25 degC/20 degC day/night temperature 14 hr photoperiod for 3 days; assay type: organism-based; conditions: in vivo
Observed Property: inhibition at 72 h, 1 mg/L (%)
All answers are understood in %, so give the number only.

// worked examples, inhibition at 72 h, 1 mg/L included
Compound: C[C@H](Oc1ccc(Cl)cc1Cl)C(=O)O [(S)-DICHLORPROP]
inhibition at 72 h, 1 mg/L (%): 38.1
//
Compound: CC(Oc1ccc(Cl)cc1Cl)C(=O)O (racemic)
inhibition at 72 h, 1 mg/L (%): 39.7

Would you kindly look at the next entry?
C[C@@H](Oc1ccc(Cl)cc1Cl)C(=O)O [(R)-DICHLORPROP] yielded inhibition at 72 h, 1 mg/L of 42.7

* * *

test: Phytotoxicity against Zea mays (maize) assessed as inhibition of shoot height at 0.02 mg/L and at 25 degC/20 degC day/night temperature 14 hr photoperiod for 3 days; assay type: organism-based; conditions: in vivo
// reported inhibition at 72 h, 0.02 mg/L per item
Use % as the unit, but write only the number.

For orientation, consider the following solved cases.
Compound: C[C@@H](Oc1ccc(Cl)cc1Cl)C(=O)O [(R)-DICHLORPROP]
Endpoint Unit: %
inhibition at 72 h, 0.02 mg/L: 3.52

Compound: C[C@H](Oc1ccc(Cl)cc1Cl)C(=O)O [(S)-DICHLORPROP]
Endpoint Unit: %
inhibition at 72 h, 0.02 mg/L: 2.06

Now take the following compound into account.
Given item CC(Oc1ccc(Cl)cc1Cl)C(=O)O (racemic) , the value recorded as its inhibition at 72 h, 0.02 mg/L is 2.14

* * *

test: Phytotoxicity against Zea mays (maize) assessed as inhibition of shoot height at 1 mg/L and at 25 degC/20 degC day/night temperature 14 hr photoperiod for 3 days; type: organism-based; details: in vivo
Observed Property: inhibition at 72 h, 1 mg/L (%)
Express the result in % but write the number alone.

Take a look at these entries with their results.
Molecule: CC(Oc1ccc(Cl)cc1Cl)C(=O)O (racemic) [RAC-DICHLORPROP]
Observed Property: inhibition at 72 h, 1 mg/L
Measured Number: 31.1
--
Molecule: C[C@H](Oc1ccc(Cl)cc1Cl)C(=O)O [(S)-DICHLORPROP]
Observed Property: inhibition at 72 h, 1 mg/L
Measured Number: 30.6

Input C[C@@H](Oc1ccc(Cl)cc1Cl)C(=O)O [(R)-DICHLORPROP] . Output inhibition at 72 h, 1 mg/L: 36.7

* * *

Overview of recorded inhibition at 72 h, 0.02 mg/L for various compounds
assay: Phytotoxicity against Zea mays (maize) assessed as inhibition of fresh weight at 0.02 mg/L and at 25 degC/20 degC day/night temperature 14 hr photoperiod for 3 days; type: organism-based; details: in vivo
Write the answer as a number in %, unit excluded.

Item: CC(Oc1ccc(Cl)cc1Cl)C(=O)O (racemic) | inhibition at 72 h, 0.02 mg/L: 2.75

Item: C[C@@H](Oc1ccc(Cl)cc1Cl)C(=O)O [(R)-DICHLORPROP] | inhibition at 72 h, 0.02 mg/L: 5.76

Value of measured inhibition at 72 h, 0.02 mg/L for the entry C[C@H](Oc1ccc(Cl)cc1Cl)C(=O)O [(S)-DICHLORPROP] : 2.12
